Tested on: LLC-PK cells
ASSAY_ENDPOINT: CC50 (µM)

STRUCTURE	SYSTEM_TESTED	REPORTED_MEASUREMENT
COc1nn(-c2ccc(NC(=O)OCc3ccccc3)c(C)c2)c(=O)o1	LLC-PK cells	109

###

System: Influenza A virus (H1N1) (PR8)
STATED_CONDITIONS: […]; drug added after 12 hours, additional 12 hours
ASSAY_ENDPOINT: IC50 (nM)

COMPOUND	REPORTED_MEASUREMENT
CCN(CC)C(=O)Nc1cccc(-c2ccc(N(C)C)cc2)c1 [DABPU-DE]	1030
